Data credit: ChEMBL document CHEMBL1121841

- procedure-details: Compound was tested for toxicity in P388 tumored mice
- Type: organism-based
- settings: mouse, in vivo
Below: a set of entries, each annotated with reported LD50.
Expressed in mg/kg, but write only the number.

Use the examples below as a reference point.
COc1cc2c(c(OC)c1OC)-c1ccc(OC)c(=O)cc1[C@@H](NC(=O)C(F)(F)F)CC2	0.8
COc1cc2c(c(OC)c1OC)-c1ccc(OC)c(=O)cc1[C@@H](NC(=O)c1ccc([N+](=O)[O-])cc1)CC2	20
COc1cc2c(c(OC)c1OC)-c1ccc(SC)c(=O)cc1[C@@H](NO[C@H]1OC[C@@H](O)[C@@H](O)[C@@H]1O)CC2	102
COc1cc2c(c(OC)c1OC)-c1ccc(SC)c(=O)cc1[C@@H](NC(=O)C(F)(F)F)CC2	1.4
COc1cc2c(c(OC)c1OC)-c1ccc(OC)c(=O)cc1[C@@H](NC=O)CC2	2.7

Give a short answer stating reported LD50 for `COc1cc2c(c(OC)c1OC)-c1cc/c(=N\Cc3ccccc3)c(O)cc1[C@@H](NC(C)=O)CC2` .
25.1

Give recorded LD50. `COc1cc2c(c(OC)c1OC)-c1ccc(OC)c(=O)cc1[C@@H](NC(C)=O)CC2`
1.4

# return recorded LD50 for entry `CNc1ccc2c(cc1=O)[C@@H](NC(C)=O)CCc1cc(OC)c(OC)c(OC)c1-2`
0.8

Kindly indicate its recorded LD50. Item: `COc1cc2c(c(OC)c1OC)-c1ccc(SC)c(=O)cc1[C@@H](N)CC2`
69

Provide only the value of recorded LD50 for `COc1cc2c(c(OC)c1OC)-c1ccc(SC)c(=O)cc1[C@@H](NC(C)=O)CC2`
1

---

- Organism: Mus musculus
- settings: in vivo
- Description: Logarithm of toxic activity (1/lethal dose) in mice bearing P388 leukemia on chronic regimen (Q 1-9)
Assign class by Log 1/LD50: not lower than 4 means fulfilled; lower than 4 means not fulfilled.

Reference set, count: 5
COc1cc2c(c(OC)c1OC)-c1ccc(SC)c(=O)cc1[C@@H](NO[C@H]1O[C@@H](CO)[C@H](O)[C@@H](O)[C@@H]1O)CC2	not fulfilled
COc1cc2c(c(OC)c1OC)-c1ccc(OC)c(=O)cc1[C@@H](NC(C)=O)CC2 [COLCHICINE]	fulfilled
COc1cc2c(c(OC)c1OC)-c1ccc(OC)c(=O)cc1[C@@H](N)CC2 [DEACETYLCOLCHICINE]	not fulfilled
COc1cc2c(c(OC)c1OC)-c1ccc(OC)c(=O)cc1[C@@H](NC(=O)C(F)(F)F)CC2	fulfilled
COc1cc2c(c(OC)c1OC)-c1ccc(SCc3ccccc3)c(=O)cc1[C@@H](NC(C)=O)CC2	fulfilled

Say whether `COc1cc2c(c(OC)c1OC)-c1ccc(OC)c(=O)cc1[C@@H](NC(=O)c1ccccc1)CC2` shows Log 1/LD50 of 4 or more.
fulfilled

Does `COc1cc2c(c(OC)c1OC)-c1ccc(OC)c(=O)cc1[C@@H](N(C)C)CC2` have a reported Log 1/LD50 of at least 4?
fulfilled

---

- procedure-details: Compound was tested for toxicity in non tumored mice
- Assay type: organism-based
- settings: mouse, in vivo
Items are presented alongside their recorded LD50.
// units = mg/kg; emit number, no label

// solved cases for LD50 follow
CNc1ccc2c(cc1=O)[C@@H](NC(C)=O)CCc1cc(OC)c(OC)c(OC)c1-2	1.4
COc1cc2c(c(OC)c1OC)-c1ccc(OC)c(=O)cc1[C@@H](NC(=O)c1ccc([N+](=O)[O-])cc1)CC2	25
COc1cc2c(c(OC)c1OC)-c1ccc(SC)c(=O)cc1[C@@H](N)CC2	177
COc1cc2c(c(OC)c1OC)-c1ccc(OC)c(=O)cc1[C@@H](NC(=O)C(F)(F)F)CC2	1.9
COc1cc2c(c(OC)c1OC)-c1ccc(SC)c(=O)cc1[C@@H](NC(=O)C(F)(F)F)CC2	3.5

Fill in LD50 for record `COc1cc2c(c(OC)c1OC)-c1ccc(OC)c(=O)cc1[C@@H](NC=O)CC2`
5

Find the measured LD50 of `COc1cc2c(c(OC)c1OC)-c1ccc(SC)c(=O)cc1[C@@H](NC(C)=O)CC2` and report it.
1

Entry `COc1cc2c(c(OC)c1OC)-c1ccc(SC)c(=O)cc1[C@@H](NO[C@H]1OC[C@@H](O)[C@@H](O)[C@@H]1O)CC2` needs its LD50 filled in; supply it.
251

Give recorded LD50. `COc1cc2c(c(OC)c1OC)-c1cc/c(=N\Cc3ccccc3)c(O)cc1[C@@H](NC(C)=O)CC2`
41

Report measured LD50; entry is `COc1cc2c(c(OC)c1OC)-c1ccc(OC)c(=O)cc1[C@@H](NC(C)=O)CC2`
1.6
